Tested on: Fer (mouse);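 note: frequency after pTyr selection over input frequency; kinase dosed for 20-30% of maximal phosphorylation in three min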
test_method_notes: phosphorylation enrichment, bacterial display (enrichment ratio); higher = better substrate or ligand; peptides without Tyr show the background
Could you please report measured phosphorylation enrichment for the items listed next?
Please give the numeric answer without any surrounding text.

Task: API: value(readout= phosphorylation enrichment, system= Fer (mouse), query= DKATEYIQFVR [MAX_Y70_M74V_YF] );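 note: frequency after pTyr selection over input frequency; kinase dosed for 20-30% of maximal phosphorylation in three min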
Output: 0.465

Task: Find the measured phosphorylation enrichment: item ENGPYYASYPP [GDAP2_Y488_T489A] , target or system Fer (mouse).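 Note: frequency after pTyr selection over input frequency; kinase dosed for 20-30% of maximal phosphorylation in three min.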
Output: 1.29

Task: For Fer (mouse), provide phosphorylation enrichment of QNVADYMRCLM [RPL5_Y207_Y210C] please.
Output: 0.797

Task: Which phosphorylation enrichment is reported with Fer (mouse) for this entry: YGLQAYTKVKT [ALDH2_Y502_E504K] ?
Output: 0.427

Task: // fetch Fer (mouse) phosphorylation enrichment for SAVVPYEPPEV [TP53_Y220_V216A]
Output: 0.479

Task: Can you look up phosphorylation enrichment on Fer (mouse) for DRPASYLEKVR [KRT13_Y118_L115P] ?
Output: 0.276

Task: Entry QSKGIYYVQLE [MGAT4B_Y262] , system Fer (mouse): what phosphorylation enrichment was measured?;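 note: 11-residue human phosphosite peptides and single-mutation variants displayed on the E. coli surface, counted by deep sequencing, each peptide's frequency after selection divided by its frequency in the unselected input library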;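 note: frequency after pTyr selection over input frequency; kinase dosed for 20-30% of maximal phosphorylation in three min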
Output: 0.763
